# Tested on: Mycobacterium tuberculosis
# assayRemarks: Antimycobacterial activity against extensively drug resistant Mycobacterium tuberculosis Praha 1 after 21 days by micromethod
# Assay type: functional
# conditionSummary: Praha 1, 504 h
observable: MIC
Write the numeric value and follow it with the unit.

[[record]]
smilesinput = "NNC(=O)c1ccncc1"
testedtarget = "Mycobacterium tuberculosis"
result = "14.6 µM"

[[record]]
smilesinput = "CC(=O)N[C@@H](Cc1ccccc1)C(=O)Oc1ccc(Cl)cc1C(=O)Nc1ccc(C(F)(F)F)cc1"
testedtarget = "Mycobacterium tuberculosis"
result = "2 µM"

[[record]]
smilesinput = "CC(=O)N[C@@H](Cc1ccccc1)C(=O)Oc1ccc(Cl)cc1C(=O)Nc1ccc(Cl)c(Cl)c1"
testedtarget = "Mycobacterium tuberculosis"
result = "2 µM"


Please examine the following record next.
For reference, reported MIC for CC(=O)N[C@@H](Cc1ccccc1)C(=O)Oc1ccc(Br)cc1C(=O)Nc1ccc(C(F)(F)F)cc1 stands at 2 µM

Source of measurements: ChEMBL document CHEMBL1629494
